Provenance of the data: ChEMBL document CHEMBL5380862

- protocol.details: Drug distribution in mouse plasma at 5 mg/kg, po administered as single dose and measured after 0.5 hrs by LC-MS analysis
- Assay type: ADME, organism-based
assay.readout: concentration at 0.5 h (ng/mL)
The response must be a number in ng/mL with no trailing unit.

// concentration at 0.5 h lookup, molecule = `O=P([O-])(OC1=Cc2c(Cl)cccc2Sc2ccccc21)OC1=Cc2c(Cl)cccc2Sc2ccccc21.[Na+]` , result: 135

---

- protocol.details: Drug distribution in mouse lung at 5 mg/kg, po administered as single dose and measured after 0.5 hrs by LC-MS analysis
- Format: ADME, organism-based
- assay.setup: read-out: Drug uptake
assay.readout: concentration at 0.5 h (ng/g)
The response must be a number in ng/g with no trailing unit.

// concentration at 0.5 h lookup, molecule = `O=P([O-])(OC1=Cc2c(Cl)cccc2Sc2ccccc21)OC1=Cc2c(Cl)cccc2Sc2ccccc21.[Na+]` , result: 18.6

---

- protocol.details: AUClast in ICR mouse at 2 mg/kg, iv administered as single dose
- Type: ADME, organism-based
- Set-up: dose 2 mg/kg, route iv
- assay.setup: in vivo
assay.readout: AUC(0-t) (ng·h/mL)
The response must be a number in ng·h/mL with no trailing unit.

// AUC(0-t) lookup, compound = `O=P([O-])(OC1=Cc2c(Cl)cccc2Sc2ccccc21)OC1=Cc2c(Cl)cccc2Sc2ccccc21.[Na+]` , result: 1680

---

- target.system: G-protein coupled receptor 84 (Homo sapiens, UniProt Q9NQS5)
- Sequence (Q9NQS5 whole entry): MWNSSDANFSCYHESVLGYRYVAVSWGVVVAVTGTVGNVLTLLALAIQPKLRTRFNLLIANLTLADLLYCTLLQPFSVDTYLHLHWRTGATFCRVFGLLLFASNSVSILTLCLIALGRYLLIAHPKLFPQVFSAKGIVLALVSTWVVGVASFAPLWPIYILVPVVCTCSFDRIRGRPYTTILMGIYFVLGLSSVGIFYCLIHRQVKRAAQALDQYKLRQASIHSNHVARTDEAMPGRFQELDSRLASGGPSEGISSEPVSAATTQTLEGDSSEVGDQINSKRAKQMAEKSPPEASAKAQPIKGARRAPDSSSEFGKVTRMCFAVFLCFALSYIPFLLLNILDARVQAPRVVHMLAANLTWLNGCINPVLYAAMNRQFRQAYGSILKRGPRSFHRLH
- protocol.details: Antagonist activity at human GPR84 expressed in HEK293 cells co-expressing Galpha16 assessed as inhibition of 6-OAU induced calcium response incubated for 10 mins by calcium mobilization assay
pIC50: −log10 of the molar value.
Param threshold (6) applies to pIC50; output True when value >= threshold, False when value < threshold.

As a guide, the following entries are already answered.
1) COc1cccc2c1Sc1ccccc1C=C2OP(=O)(O)OC12CC3CC(CC(C3)C1)C2 ... True
2) COc1cccc2c1Sc1ccccc1C=C2OP(=O)(O)OC1C(C)(C)CCCC1(C)C ... True
3) COc1cccc2c1Sc1ccccc1C=C2OP(=O)(O)OC1CCOC1 (centres undefined) ... False
4) CC1(C)[C@@H]2CC[C@@](C)(C2)[C@@H]1OP(=O)(O)OC1=Cc2c(F)cccc2Sc2ccccc21 ... True

Confirm if pIC50 reported for the compound `COc1cccc2c1Sc1ccccc1C=C2OP(=O)(O)O[C@H]1C[C@@H](C)CC[C@@H]1C(C)C` is 6 or above.
True

Confirm if pIC50 reported for the compound `COc1cccc2c1Sc1ccccc1C=C2OP(=O)(O)OC` is 6 or above.
False

Confirm if pIC50 reported for the compound `COc1cccc2c1Sc1ccccc1C=C2OP(=O)(O)OC1CC1` is 6 or above.
False

Confirm if pIC50 reported for the compound `COc1cccc2c1Sc1ccccc1C=C2OP(=O)(O)Oc1cc(C(C)C)ccc1C` is 6 or above.
True

Confirm if pIC50 reported for the compound `CC1(C)[C@@H]2CC[C@@](C)(C2)[C@@H]1OP(=O)(O)OC1=Cc2ccccc2Sc2ccccc21` is 6 or above.
True

Confirm if pIC50 reported for the compound `CC1(C)[C@@H]2CC[C@@](C)(C2)[C@@H]1OP(=O)(O)OC1=Cc2ccccc2Sc2c(OC(F)(F)F)cccc21` is 6 or above.
True

Confirm if pIC50 reported for the compound `CC/C=C\CCCCOP(=O)(O)OC1=Cc2ccccc2Sc2c(OC)cccc21` is 6 or above.
True

Confirm if pIC50 reported for the compound `COc1cccc2c1Sc1ccccc1C=C2OP(=O)(O)O[C@@H]1C[C@H](C)CC[C@H]1C(C)C` is 6 or above.
True
